system: SF-268 CNS; assay: NCI-60 one-dose screen, 48 h; details: 10 µM unless noted
This is part of a sample that, as a whole, favours compounds with a hit. Of some 83,000 tested, about 20% had one in any assay. The source made the active and inactive calls. Rule for the calls: active = growth percent below 10; inactive = the rest.
Reply using exactly one outcome from YES = active, NO = inactive

The examples below pair each entry with its known result.
>  <compound>
Cc1nnc(Nc2ccc(NC(=O)Nc3ccc(Cl)cc3)cc2)c2ccccc12

>  <classAssignment>
NO

$$$$
>  <compound>
Clc1ccccc1[C@@H]1C[C@@H]2Cc3cc(Br)c4ccccc4c3N1O2

>  <classAssignment>
NO

$$$$
>  <compound>
COC1CC2CCC(C)C(O)(O2)C(=O)C(=O)N2CCCCC2C(=O)OC(C(C)CC2CCC(O)C(OC)C2)CC(=O)C(C)C=C(C)C(O)C(OC)C(=O)C(C)CC(C)/C=C/C=C/C=C1C (configuration not stated)

>  <classAssignment>
NO

$$$$

input: Please share the test call associated with COc1cc(/C=C/C(=O)N2CCN(C(=O)/C=C/c3ccccc3)CC2)cc(OC)c1OC .
output: NO

input: Please share the test call associated with N#Cc1cccc(/C=C(/C(=O)c2ccccc2)c2ccccc2)c1 .
output: NO

input: Please share the test call associated with CCOC(=O)c1c(C)nc(C)c(C(=O)OCC)c1-c1cccnc1 .
output: NO

input: Please share the test call associated with COC(=O)CCC1=C(C)C(C)=N/C1=C\c1[nH]c(-c2ccc[nH]2)cc1OC .
output: NO

input: Please share the test call associated with Clc1ncn[nH]1 .
output: NO

input: Please share the test call associated with Cc1c(NCc2nnc3n(Cc4ccccc4)c(=O)c4c5c(sc4n23)CCCC5)c(=O)n(-c2ccccc2)n1C .
output: NO

input: Please share the test call associated with C=C(C)[C@H]1CC/C(C)=C/CC[C@]2(C)O[C@H]2CC/C(C=O)=C\C1O (some centres not stated) .
output: NO

###

test system: SNB-75 CNS; test: NCI-60 one-dose screen, 48 h; conditions: 10 µM unless noted
This is part of a sample that, as a whole, favours compounds with a hit. Of some 83,000 tested, about 20% had one in any assay. Active and inactive are the calls of the source. How the source made its calls: active means growth percent below 10; inactive means the rest.
Reply using exactly one outcome from active, inactive

The examples below pair each entry with its known result.
>  <compound>
Clc1ccc2c(Nc3ccc4oc(NCCN5CCCC5)nc4c3)ccnc2c1

>  <classAssignment>
inactive

$$$$
>  <compound>
CC(C)COCC(CN(Cc1ccccc1)c1ccccc1)N1CCCC1 (stereo not given)

>  <classAssignment>
inactive

$$$$

input: Please share the test call associated with C/C(=N/N=C(N)N)c1ccc(Cl)cc1 .
output: inactive

input: Please share the test call associated with COc1ccc(Cn2c(NCCCN(C)C)nc(=O)n(Cc3ccc(F)cc3)c2=O)cc1 .
output: inactive

input: Please share the test call associated with CNc1ccc(CSc2ccc(Cl)cc2)cc1 .
output: inactive

input: Please share the test call associated with CC[C@H](C)C(=O)O[C@H]1C[C@@H](C)C=C2C=C[C@H](C)[C@H](CC[C@@H]3C[C@@H](O)CC(=O)O3)[C@H]21 .
output: inactive

input: Please share the test call associated with COc1ccc(C(=O)Nc2nc(-c3ccc(Cl)cc3)cs2)cc1 .
output: inactive

input: Please share the test call associated with O=C(NCCCO)c1cc(Cl)ccc1O .
output: inactive

input: Please share the test call associated with O=C(Nc1cccc([N+](=O)[O-])c1)c1cccc(C(=O)Nc2cccc([N+](=O)[O-])c2)c1 .
output: active

input: Please share the test call associated with Fc1ccc(-c2nnc(/C=C/c3cn(-c4ccccc4)nc3-c3ccccc3)o2)cc1 .
output: inactive

input: Please share the test call associated with COc1ccc2nc(NC(=O)c3cc(-c4ccc(F)cc4)n4nc(-c5ccccc5)cc4n3)sc2c1 .
output: inactive

###

test system: SK-MEL-28 melanoma; test: NCI-60 one-dose screen, 48 h; settings: 10 µM unless noted
The panel holds about 83,000 compounds, 20% with a hit somewhere; the sample as a whole holds those more often. The source made the active and inactive calls. Rule for the calls: active = growth percent below 10; inactive = the rest.
Reply using exactly one outcome from active, inactive

The examples below pair each entry with its known result.
>  <compound>
CCCCn1c(Cc2ccc(Cl)cc2)nc2cc(OC)c(OC)cc2c1=O

>  <classAssignment>
inactive

$$$$
>  <compound>
CN(C)CCCN1c2nc3ccccc3cc2Sc2cc3ccccc3nc21

>  <classAssignment>
active

$$$$
>  <compound>
O=C(c1nn(-c2ccc(Cl)cc2)cc1O)n1nc(C(F)(F)F)cc1-c1ccccc1

>  <classAssignment>
inactive

$$$$
>  <compound>
COc1ccc(-c2cn(-c3ccccc3)c(-c3ccccc3)n2)cc1OC

>  <classAssignment>
inactive

$$$$
>  <compound>
O=C1Cc2cc(CCN3CCN(CCOCCO)CC3)c(Cl)cc2N1Cc1ccc(-c2ccccc2-c2nn[nH]n2)cc1

>  <classAssignment>
inactive

$$$$

input: Please share the test call associated with CC1CC(C)/C(=N/NC(N)=O)C(C(O)CC2CCC(=O)NC2=O)C1 (stereo unspecified) .
output: inactive

input: Please share the test call associated with N=c1ccn2c(n1)O[C@@H]1[C@@H](O)[C@H](CO)O[C@@H]12 .
output: inactive

input: Please share the test call associated with O=C(C=C=Nc1ccccc1)C(=O)N=C=Cc1ccccc1 .
output: inactive

input: Please share the test call associated with Clc1ncn[nH]1 .
output: inactive

input: Please share the test call associated with CCC(O)C(C)(C)C (stereo unspecified) .
output: inactive

input: Please share the test call associated with CC1=C(C(=O)Nc2ccccc2)C(c2ccc3c(c2)OCCO3)NC(=O)N1 (stereo unspecified) .
output: inactive

###

tested on: UO-31 renal; experiment: NCI-60 one-dose screen, 48 h (100 = growth as untreated, 0 = no growth, -100 = all killed); details: 10 µM unless noted
Compounds without any hit were thinned out: in the full panel of roughly 83,000, 20% have a hit.
Hi, to clarify the labels: yes covers growth from 60% upward, no covers anything below 60%.

>  <chemSmiles>
Cc1nn(-c2ccc(Br)cc2)c2nc3c(nc12)C(=O)C(=O)c1ccccc1-3

>  <testedTarget>
UO-31 renal

>  <classAssignment>
yes

$$$$

input: In plain terms: is recorded growth at least 60% for CCSc1nnc2n(Cc3ccccc3)c(=O)c3c(C)c(C(N)=O)sc3n12 ?
output: yes

input: In plain terms: is recorded growth at least 60% for O=C1/C(=C/c2ccc([N+](=O)[O-])o2)Oc2ccc(Br)cc21 ?
output: no

input: In plain terms: is recorded growth at least 60% for Cc1c(C)c(N2C(=O)C=CC2=O)c(C)c(C)c1N1C(=O)C=CC1=O ?
output: no

input: In plain terms: is recorded growth at least 60% for COc1ccc2nc3cc(Cl)ccc3c(N3CCN(c4ccnc(Nc5ccc(F)cc5)n4)CC3)c2c1 ?
output: no

###

tested on: NCI-H522 lung; assay: NCI-60 one-dose screen, 48 h; details: 10 µM unless noted
Compounds without any hit were thinned out: in the full panel of roughly 83,000, 20% have a hit. The source made the active and inactive calls. How the source made its calls: active means growth percent below 10; inactive means the rest.
Reply using exactly one outcome from T for active, F for inactive

The examples below pair each entry with its known result.
>  <compound>
CCN1C(=O)c2ccc3c4c(ccc(c24)C1=O)C(=O)N(CCCNCc1ccccc1OC)C3=O

>  <testedTarget>
NCI-H522 lung

>  <classAssignment>
T

$$$$
>  <compound>
Cc1nn(-c2ccc(Cl)cc2)c2nc3c(nc12)C(=O)C(=O)c1ccccc1-3

>  <testedTarget>
NCI-H522 lung

>  <classAssignment>
F

$$$$
>  <compound>
CCCCC(C#N)C(N)=O (stereo not given)

>  <testedTarget>
NCI-H522 lung

>  <classAssignment>
F

$$$$
>  <compound>
CCN1CCN(c2cc(-c3cn[nH]c3-c3cc(C)cc(OC)c3)nc(-c3cccnc3)n2)CC1

>  <testedTarget>
NCI-H522 lung

>  <classAssignment>
F

$$$$
>  <compound>
COc1cc(C(=O)/C=C/c2cccnc2Nc2ccccc2)cc(OC)c1OC

>  <testedTarget>
NCI-H522 lung

>  <classAssignment>
T

$$$$

input: Please share the test call associated with C[n+]1c2ccccc2c(NC2CCNCC2)c2[nH]c3ccccc3c21 .
output: T

input: Please share the test call associated with O=C1NCC(Nc2ccc(Br)cc2Cl)C(=O)N1 (stereo not given) .
output: F

input: Please share the test call associated with COc1ccc2nccc(/C=C/c3ccnc4ccc(OC)cc34)c2c1 .
output: F

input: Please share the test call associated with Cc1cc2c(cc1C)Nc1sc(NC(=O)CN3CCN(C)CC3)nc1C(=O)N2 .
output: F

input: Please share the test call associated with CN(CC(=O)N(Cc1ccc(C2CCCCC2)cc1)c1ccc(C(=O)O)cc1)S(=O)(=O)c1c(F)c(F)c(F)c(F)c1F .
output: F

input: Please share the test call associated with CCOC(=O)C(C(C)=O)c1nc2sc3cc(Cl)ccc3n2c(=N)c1C#N (stereo not given) .
output: F

input: Please share the test call associated with ClC1=C(Cl)C(=C2C(Cl)=C(Cl)C(Cl)=C2Cl)C(Cl)=C1Cl .
output: F

input: Please share the test call associated with CCCc1cccc(CCC)c1O .
output: F

input: Please share the test call associated with COC(=O)[C@]1(C(C)C)N[C@H](c2cn(-c3ccccc3)nc2-c2ccccc2)[C@@H]2C(=O)N(c3ccc(Cl)cc3)C(=O)[C@@H]21 .
output: F
